- system: T1, Human LILRB4 on transiently transfected HEK293-6E cells (human, UniProt Q8NHJ6 22-448)
- T1 construct: whole, on cells; also called hLILRB4
- method: flow cytometry, transiently transfected HEK293-6E cells

[
  {
    "binder": "B2H1-11 (antibody, V domains shown, Humanized variant, human IgG1 / kappa) VH: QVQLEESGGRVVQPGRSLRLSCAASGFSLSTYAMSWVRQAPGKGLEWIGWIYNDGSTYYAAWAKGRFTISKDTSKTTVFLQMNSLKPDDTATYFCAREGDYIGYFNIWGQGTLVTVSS VL: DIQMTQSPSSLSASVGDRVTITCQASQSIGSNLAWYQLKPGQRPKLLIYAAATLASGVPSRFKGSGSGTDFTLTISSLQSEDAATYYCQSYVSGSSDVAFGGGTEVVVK",
    "unit.label": "MFI",
    "Bmax (MFI)": 38
  }
]
